- subject_of_test: Clade B BaL gp120 protein (HIV-1 Clade B, BaL)
- test_summary: BLI (Octet), IgG on anti-hIgG Fc sensor, gp120 analyte, 1:1 fit
measurement_type: fold (KD vs average of 4 runs of L1A2) (fold)
# number only, unit fold dropped from output

// solved cases for fold (KD vs average of 4 runs of L1A2) follow
binder	measurement_type	quantitative_result
NglycoNDplus6 (antibody, V domains shown) VH: ADLVQSGAVVKKPGDSVRISCEAQGYTFPDYIIHWIRRAPGQGPEWMGWMNPMGGQVNIPWKFQGRVSMTRDTSIETAFLDLRGLKSDDTAVYYCVRDRGDGSRRHFDSSNWFLDLWGRGTAVTIQS VL: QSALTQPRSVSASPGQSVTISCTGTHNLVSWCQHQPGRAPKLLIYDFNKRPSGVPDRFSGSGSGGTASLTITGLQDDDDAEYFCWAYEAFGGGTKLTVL	fold (KD vs average of 4 runs of L1A2)	20.9
Germ12_NglycoSA_CysCA (antibody, V domains shown) VH: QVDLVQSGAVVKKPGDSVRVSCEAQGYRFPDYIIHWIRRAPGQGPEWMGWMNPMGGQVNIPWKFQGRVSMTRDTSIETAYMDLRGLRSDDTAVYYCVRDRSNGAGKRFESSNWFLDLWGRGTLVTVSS VL: QSALTQPRSVSGSPGQSVTISCTGTHNLVSWAQHQPGRAPKLLIYDFNKRPSGVPDRFSGSGSGGTASLTISGLQDEDDAEYFCWAYEAFGGGTKLTVL	fold (KD vs average of 4 runs of L1A2)	1.16

Consider the additional binder presented here.
Per the record, Germ17 (antibody, V domains shown) VH: QVDLVQSGAVVKKPGDSVRVSCEAQGYRFPDYIIHWIRRAPGQGPEWMGWMNPMGGQVNIPWKFQGRVSMTRDTSIETAYMDLRGLRSDDTAVYYCVRDRSNGSGKRFESSNWFLDLWGRGTLVTVSS VL: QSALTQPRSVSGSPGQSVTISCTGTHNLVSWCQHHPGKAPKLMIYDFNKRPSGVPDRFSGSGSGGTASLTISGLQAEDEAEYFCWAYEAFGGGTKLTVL has fold (KD vs average of 4 runs of L1A2) of 1.2
